Test system: HS 578T breast
METHOD: NCI tumour cell line growth inhibition, 48 h; in the data active means GI50 below about 0.43 µM; inactive means the rest
Lab note: assign the record to one of active, inactive

Worked set:
Nc1ccc(-n2c(=O)oc3ccc(Cl)cc3c2=O)c(Cl)c1	active
CO/N=C(/COc1c(-c2ccccc2)oc2ccccc2c1=O)c1ccc(F)cc1	inactive
COc1ccc(C2=C(c3cc(OC)c(OC)c(OC)c3)C(=O)OC2)cc1OC	active
COc1ccc2[nH]cc(-c3nc(-c4c[nH]c5ccncc45)cs3)c2c1	inactive
COc1cc2ncn(-c3cc(OCc4ccccc4S(C)(=O)=O)c(C#N)s3)c2cc1OC	inactive
Cc1ccc(/C(=C/C=C(C#N)C#N)Sc2ccccn2)cc1	inactive
CCCCCCN1CCN(Cc2ccc(N(CC)CC)cc2)C(=O)C1=O	inactive
CCCCCCCCCCCCCCCCn1cc[n+](Cc2ccccc2)c1C	inactive

Kindly consider the entry below.
Q. Dear colleague, could you share the recorded outcome for CCOC(=O)C1=C(c2ccccc2)N(c2ccc(OC)cc2)[C@]2(C#N)C(O)=C(Cl)C(Cl)=C(O)[C@]12C#N when you have a moment?
A. inactive

====

The entries below are paired with their reported TGI.
Tested on: HCT-15 colon
METHOD: NCI tumour cell line growth inhibition, 48 h

Please review the following examples before continuing.
CC(C)(C)c1cc(C2COC(=O)COCC(=O)OCCOCCOCCO2)cc(C(C)(C)C)c1O (centres undefined)	> 100 µM
COc1ccc(-n2c3c(c4c(CN(C)C)c(O)c(C)cc42)CCc2ccccc2C3=O)cc1	> 100 µM
COc1cc(-c2nc3nc(N4CCN(C)CC4)ccc3[nH]2)c(OC)c2[nH]c(COC(C)=O)nc12	> 100 µM
N#Cc1c(N2CCN(c3ccc([N+](=O)[O-])cc3)CC2)[n+](=O)c2ccc(Cl)cc2n1[O-]	2.17 µM
COc1cc2c3c(n(C)c(=O)c2cc1OC)-c1cc2c(cc1/C3=C/[C@H](N)CCCCN)OCO2	> 86.4 µM

Now look at this entry.
Q. Check the records and state TGI for CC(=O)NC1=C(C)C(=O)c2c(nc3n2CC[C@H]3OC(C)=O)C1=O
A. 12.6 µM

====

System: RXF 393 renal
METHOD: NCI tumour cell line growth inhibition, 48 h; in the data active means GI50 below about 0.43 µM; inactive means the rest
Lab note: assign the record to one of active, inactive

Nc1ccc(-n2c(=O)oc3ccc(Cl)cc3c2=O)c(Cl)c1	active
COc1ccc(-c2nc3sc4c(c3c(=O)[nH]2)CCCC4)c2ccccc12	active
CN1C(=O)C(c2c[nH]c3ccccc23)=C(c2c(-c3c[nH]c4ccccc34)[nH]c3ccccc23)C1=O	inactive
CO/N=C(/COc1c(-c2ccccc2)oc2ccccc2c1=O)c1ccc(F)cc1	inactive
CCC(=O)c1ccc2c(c1)N(CCCN1CCN(CCO)CC1)c1ccccc1S2	inactive

Kindly consider the entry below.
Q. Dear colleague, could you share the recorded outcome for N/C(=N\c1nc2ccccc2s1)NC(=O)Nc1cccc2ccccc12 when you have a moment?
A. active

====

System: MDA-MB-435
METHOD: NCI tumour cell line growth inhibition, 48 h
The entries below are paired with their reported TGI.

Please review the following examples before continuing.
O=C1CC/C(=C\COc2ccc3ccc(=O)oc3c2)O1	17.5 µM
COc1ccc(/C=N/n2c(Cc3ccc(Cl)cc3)n[nH]c2=O)c(OC)c1	> 100 µM
CC(=O)NC1=C(C)C(=O)c2c(nc3n2CC[C@H]3OC(C)=O)C1=O	1.85 µM
Cc1ccc(F)cc1NC(=O)c1cc(Cl)ccc1Nc1ccccc1	> 100 µM
CC(C)C1=CC23CCC4C(C)(C(=O)O)CCCC4(C)C2CC1C(C(=O)O)C3C(=O)O (centres undefined)	> 100 µM

Q. Check the records and state TGI for Cc1ccc(C[P+](c2ccccc2)(c2ccccc2)c2ccccc2)cc1
A. 5.4 µM

Q. Check the records and state TGI for COc1ccc(C2=CN3CCC[C@H]3C=C2c2cc(O)c(OC)c(OC)c2)cc1OC
A. 0.0165 µM

Q. Check the records and state TGI for CC1(C)[C@@H]2C[C@H]1C(Cc1cccc(C[C@H]3c4cc(-c5ccccn5)ncc4[C@H]4C[C@@H]3C4(C)C)c1)c1cc(-c3ccccn3)ncc12 (some centres undefined)
A. > 58.5 µM

Q. Check the records and state TGI for Cc1ccc(/C(=C/C=C(C#N)C#N)Sc2ccccn2)cc1
A. 13.3 µM

Q. Check the records and state TGI for Cc1ccccc1C(C(=O)NC1CCCCC1)N(C(=O)Cn1ccnc1C)c1cccc(F)c1 (centres undefined)
A. > 100 µM

Q. Check the records and state TGI for CN1C(=O)C(c2c[nH]c3ccccc23)=C(c2c(-c3c[nH]c4ccccc34)[nH]c3ccccc23)C1=O
A. 4.11 µM
